pEC50 values for the molecules below.
Tested target: Gal4-RORγ-LBD (Homo sapiens)
Construct: expressed in transfected cells
Protocol details: Gal4-RORγ Luciferase Reporter Assay in HEK-293T Cells
Assay type: cell-based
Run conditions: HEK-293 cells, luciferase reporter, in presence of ursolic acid
pEC50: −log10 of the molar value.

Exam item: // query pEC50 value for entry N[C@@H]1Cc2ccc(OCc3c(F)cccc3Cl)cc2N(S(=O)(=O)c2cccc(C(F)(F)F)c2)C1
Marked response: 5.30 to 6.30

Exam item: // query pEC50 value for entry O=C(O)C1CCN(C(=O)CC[C@H]2CN(S(=O)(=O)c3cccc(C(F)(F)F)c3)c3cc(/C=C/c4c(Cl)cccc4C(F)(F)F)ccc3O2)CC1 [Example 129A]
Marked response: > 6.30

---

Tested target: Gal4-RORγ-LBD (Homo sapiens)
Construct: expressed in transfected cells
Sequence (P51449 269-508 limits assumed): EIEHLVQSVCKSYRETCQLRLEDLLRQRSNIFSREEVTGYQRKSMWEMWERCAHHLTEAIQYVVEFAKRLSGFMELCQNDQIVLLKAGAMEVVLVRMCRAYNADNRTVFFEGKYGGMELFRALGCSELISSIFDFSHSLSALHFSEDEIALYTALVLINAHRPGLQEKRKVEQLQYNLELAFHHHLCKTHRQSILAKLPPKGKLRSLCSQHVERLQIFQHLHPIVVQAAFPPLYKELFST
Protocol details: Gal4-RORγ Luciferase Reporter Assay in HEK-293T Cells
Type: cell-based
Run conditions: HEK-293 cells, luciferase reporter, in presence of ursolic acid
pEC50: −log10 of the molar value.
pEC50 values for the molecules below.

Solved cases (2 shown):
[[record]]
molecule = "CCOC(=O)C(=O)NCC[C@H]1CN(S(=O)(=O)c2ccc(F)c(OC)c2)c2cc(/C=C(\\C)c3c(F)cccc3Cl)ccc2O1 [Example 116C]"
property_name = "pEC50"
test_value = "5.30 to 6.30"

[[record]]
molecule = "C/C(=C\\c1ccc2c(c1)N(S(=O)(=O)c1cccc(C(F)(F)F)c1)C[C@H](OC(C)(C)C(=O)O)C2)c1c(F)cccc1Cl [Example 173F]"
property_name = "pEC50"
test_value = "> 6.30"


Here is the next item to consider.
Exam item: // query pEC50 value for entry CC(=O)N1CCN(C(=O)CC[C@H]2CN(S(=O)(=O)c3cccc(C(F)(F)F)c3)c3cc(/C=C(\C)c4c(F)cccc4Cl)ccc3O2)CC1 [Example 127J]
Marked response: > 6.30

---

Tested target: RORγ-LBD (Homo sapiens, UniProt P51449)
Construct: made in house; host or cells: SF9 cells (baculovirus); used as diluted lysate
Protocol details: RORγ-Ligand Binding Domain (LBD) TR-FRET Assay
Format: biochemical
Run conditions: RORγ-LBD TR-FRET assay
EC50 values for the compounds below.

[[record]]
compound = "C/C(=C\\c1ccc2c(c1)N(S(=O)(=O)c1cccc(C(F)(F)F)c1)C[C@H](CCNS(C)(=O)=O)O2)c1c(F)cccc1Cl"
test_value = "< 500 nM"

[[record]]
compound = "O=C(O)C1CCN(C(=O)CC[C@H]2CN(S(=O)(=O)c3cccc(C(F)(F)F)c3)c3cc(/C=C/c4c(F)cccc4Cl)ccc3O2)CC1 [Example 129O]"
test_value = "< 500 nM"


Here is the next item to consider.
Exam item: // query EC50 value for entry COC(=O)N[C@@H]1Cc2ccc(/C=C(\C)c3c(F)cccc3Cl)cc2N(S(=O)(=O)c2cccc(C(F)(F)F)c2)[C@@H]1C
Marked response: < 500 nM

---

Tested target: Gal4-RORγ-LBD (Homo sapiens)
Construct: expressed in transfected cells
Protocol details: Gal4-RORγ Luciferase Reporter Assay in HEK-293T Cells
Format: cell-based
Run conditions: HEK-293 cells, luciferase reporter, in presence of ursolic acid
Property name: EC50

[[record]]
compound = "O=C(O)CO[C@@H]1Cc2ccc(OCc3c(F)cccc3Cl)cc2N(S(=O)(=O)c2cccc(C(F)(F)F)c2)C1"
test_value = "500 to 5000 nM"

[[record]]
compound = "O=S(=O)(c1cccc(C(F)(F)F)c1)N1C[C@H](CO)Oc2ccc(Oc3ccccc3)cc21"
test_value = "500 to 5000 nM"

[[record]]
compound = "C/C(=C\\c1ccc2c(c1)N(S(=O)(=O)c1cccc(C(F)(F)F)c1)C[C@H](CCN)O2)c1c(F)cccc1Cl"
test_value = "500 to 5000 nM"

[[record]]
compound = "COC(=O)CO[C@@H]1Cc2ccc(/C=C(\\C)c3c(F)cccc3Cl)cc2N(S(=O)(=O)c2cccc(C(F)(F)F)c2)C1 [Example 173D]"
test_value = "< 500 nM"


Exam item: // query EC50 value for entry C/C(=C\c1ccc2c(c1)N(S(=O)(=O)c1cccc(C(F)(F)F)c1)[C@H](C)[C@H](C(=O)O)C2)c1c(F)cccc1Cl
Marked response: < 500 nM

---

Tested target: RORγ-LBD (Homo sapiens, UniProt P51449)
Construct: made in house; host or cells: SF9 cells (baculovirus); used as diluted lysate
Protocol details: RORγ-Ligand Binding Domain (LBD) TR-FRET Assay
Type: biochemical
Run conditions: RORγ-LBD TR-FRET
pEC50: −log10 of the molar value.
pEC50 values for the compounds below.

[[record]]
compound = "C/C(=C\\c1ccc2c(c1)N(S(=O)(=O)c1cn(C(C)C)nc1OCCO)C[C@H](CCC(=O)O)O2)c1c(F)cccc1Cl [Example 86AY]"
test_value = "> 6.30"

[[record]]
compound = "CCOc1nn(CC)cc1S(=O)(=O)N1C[C@H](CCC(=O)OC)Oc2ccc(/C=C/c3cccc(Cl)n3)cc21 [Example 89AB]"
test_value = "5.30 to 6.30"

[[record]]
compound = "COC(=O)CC[C@H]1CN(S(=O)(=O)c2cc(C(F)(F)F)cnc2OC[C@@H](C)O)c2cc(/C=C/c3c(F)cccc3Cl)ccc2O1"
test_value = "5.30 to 6.30"

[[record]]
compound = "CCOc1nn(CC)cc1S(=O)(=O)N1C[C@H](CCC(=O)OC)Oc2ccc(/C=C/c3ccccc3C)cc21 [Example 89AT]"
test_value = "> 6.30"

[[record]]
compound = "COc1cc(S(=O)(=O)N2CCCc3ccc(O[C@@H]4CCc5ccccc54)cc32)ccc1F [Example 25B]"
test_value = "> 6.30"


Exam item: // query pEC50 value for entry O=C(O)CC[C@H]1CN(S(=O)(=O)c2cccc(C(F)(F)F)c2)c2cc(/C=C/c3ncccc3Cl)ccc2O1 [Example 89BK]
Marked response: > 6.30

Exam item: // query pEC50 value for entry CCn1cc(S(=O)(=O)N2C[C@H](CCC(=O)O)Oc3ccc(/C=C/c4c(Cl)cccc4C(F)(F)F)cc32)c(OCCO)n1 [Example 89EA]
Marked response: > 6.30

---

Tested target: Gal4-RORγ-LBD (Homo sapiens)
Construct: expressed in transfected cells
Sequence (P51449 269-508 limits assumed): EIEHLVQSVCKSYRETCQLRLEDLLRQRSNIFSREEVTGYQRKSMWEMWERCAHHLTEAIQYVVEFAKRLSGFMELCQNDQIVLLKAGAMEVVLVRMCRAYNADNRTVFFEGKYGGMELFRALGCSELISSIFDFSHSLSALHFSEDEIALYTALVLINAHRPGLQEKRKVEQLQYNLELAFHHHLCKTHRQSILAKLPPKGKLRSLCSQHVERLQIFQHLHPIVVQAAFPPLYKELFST
Protocol details: Gal4-RORγ Luciferase Reporter Assay in HEK-293T Cells
Assay type: cell-based
Run conditions: HEK-293 cells, luciferase reporter, in presence of ursolic acid
EC50 values for the compounds below.

Solved cases (4 shown):
[[record]]
compound = "COc1cc(S(=O)(=O)N2C[C@H](CNC(=O)CCC(=O)O)Oc3ccc(/C=C(\\C)c4c(F)cccc4Cl)cc32)ccc1F"
test_value = "500 to 5000 nM"

[[record]]
compound = "C/C(=C\\c1ccc2c(c1)N(S(=O)(=O)c1cccc(C(F)(F)F)c1)C[C@H](OCC(=O)O)C2)c1c(F)cccc1Cl [Example 173E]"
test_value = "500 to 5000 nM"

[[record]]
compound = "C/C(=C\\c1ccc2c(c1)N(S(=O)(=O)c1cccc(C(F)(F)F)c1)C[C@H](CCC(=O)N1CC[C@@H](C(=O)O)C1)O2)c1c(F)cccc1Cl [Example 129B]"
test_value = "< 500 nM"

[[record]]
compound = "C/C(=C\\c1ccc2c(c1)N(S(=O)(=O)c1cccc(C(F)(F)F)c1)C[C@H](CCC(=O)N1CCC1)O2)c1c(F)cccc1Cl [Example 127H]"
test_value = "< 500 nM"


Exam item: Form: Entry = C/C(=C\c1ccc2c(c1)N(S(=O)(=O)c1cccc(C(F)(F)F)c1)C[C@H](CCC(C)(C)O)O2)c1c(F)cccc1Cl [Example 121B] | System = Gal4-RORγ-LBD (Homo sapiens) | EC50 = ____
Marked response: < 500 nM

Exam item: Form: Entry = C/C(=C\c1ccc2c(c1)N(S(=O)(=O)c1cc(C(F)(F)F)cnc1OCCO)C[C@H](CCC(=O)N1CCC(C(=O)O)CC1)O2)c1c(F)cccc1Cl [Example 129K] | System = Gal4-RORγ-LBD (Homo sapiens) | EC50 = ____
Marked response: 500 to 5000 nM

Exam item: Form: Entry = C/C(=C\c1ccc2c(c1)C(S(=O)(=O)c1cccc(C(F)(F)F)c1)CC(CNS(C)(=O)=O)O2)c1c(F)cccc1Cl (stereo not shown) | System = Gal4-RORγ-LBD (Homo sapiens) | EC50 = ____
Marked response: < 500 nM

Exam item: Form: Entry = C/C(=C\c1ccc2c(c1)N(S(=O)(=O)c1cccc(C(F)(F)F)c1)C[C@@H](NC(=O)C(C)(C)O)C2)c1c(F)cccc1Cl [Example 116G] | System = Gal4-RORγ-LBD (Homo sapiens) | EC50 = ____
Marked response: < 500 nM

Exam item: Form: Entry = CC(=O)N[C@@H]1Cc2ccc(OCc3c(F)cccc3Cl)cc2N(S(=O)(=O)c2cccc(C(F)(F)F)c2)C1 | System = Gal4-RORγ-LBD (Homo sapiens) | EC50 = ____
Marked response: < 500 nM

Exam item: Form: Entry = COC(=O)C(C)(C)C[C@@H]1Cc2ccc(/C=C/c3c(F)cccc3Cl)cc2N(S(=O)(=O)c2ccc(F)c(OC)c2)C1 | System = Gal4-RORγ-LBD (Homo sapiens) | EC50 = ____
Marked response: > 10000 nM

Exam item: Form: Entry = C/C(=C\c1ccc2c(c1)N(S(=O)(=O)c1cccc(C(F)(F)F)c1)C[C@H](CCNC(=O)C1CC1)O2)c1c(F)cccc1Cl | System = Gal4-RORγ-LBD (Homo sapiens) | EC50 = ____
Marked response: < 500 nM

Exam item: Form: Entry = C/C(=C\c1ccc2c(c1)N(S(=O)(=O)c1cccc(C(F)(F)F)c1)CCS2)c1c(F)cccc1Cl | System = Gal4-RORγ-LBD (Homo sapiens) | EC50 = ____
Marked response: < 500 nM

Exam item: Form: Entry = C/C(=C\c1ccc2c(c1)N(S(=O)(=O)c1cccc(C(F)(F)F)c1)C[C@H](CCCN1CCS(=O)(=O)CC1)O2)c1c(F)cccc1Cl [Example 119H] | System = Gal4-RORγ-LBD (Homo sapiens) | EC50 = ____
Marked response: < 500 nM
